- studySystem: Solute carrier family 2, facilitated glucose transporter member 1 (Homo sapiens) (UniProt P11166)
- Sequence (P11166 whole entry): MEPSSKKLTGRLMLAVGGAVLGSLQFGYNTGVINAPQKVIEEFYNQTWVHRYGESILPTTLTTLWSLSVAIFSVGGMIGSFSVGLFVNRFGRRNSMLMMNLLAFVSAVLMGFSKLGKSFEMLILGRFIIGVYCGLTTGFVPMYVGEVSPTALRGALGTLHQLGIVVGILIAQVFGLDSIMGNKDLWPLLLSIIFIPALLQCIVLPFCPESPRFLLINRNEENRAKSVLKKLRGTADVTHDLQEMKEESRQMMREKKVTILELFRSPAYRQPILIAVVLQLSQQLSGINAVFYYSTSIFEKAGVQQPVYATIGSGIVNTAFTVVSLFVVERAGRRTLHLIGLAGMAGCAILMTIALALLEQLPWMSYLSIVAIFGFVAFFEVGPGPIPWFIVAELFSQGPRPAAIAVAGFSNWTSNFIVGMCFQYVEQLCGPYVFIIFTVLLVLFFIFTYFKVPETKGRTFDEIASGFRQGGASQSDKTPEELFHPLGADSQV
- protocolSummary: ST_JUDE_LEISH: Cytotoxicity at 2uM final concentration against transgenic Leishmania Mexicana promastigotes LmGLUT1 that are glucose transport deficient and complemented with the human glucose transporter GLUT1. Activity is measured by DNA content using SYBR green in vitro
- Format: functional
Below, each entry is listed with its recorded inhibition.
reportedMetric: inhibition (%)

> print(dat)
                                    compound  reportedmetric  observedvalue
 1  CCNc1cc(C(=O)N[C@@H](Cc2ccccc2)[C@H](O)CNC(C)C)cc(N2CC(c3ccccc3)CCS2(=O)=O)c1 (stereo not given in full)      inhibition           2.23
 2  O=C(/C=C/c1ccc(Cl)c(Cl)c1)N1CCC(NCc2c[nH]c3ccccc23)CC1      inhibition           1.33
 3    Cc1ccc(C(C)C)cc1CON1C(=N)N=C(N)NC1(C)C      inhibition           11.2
 4  Cc1ccc(S(=O)(=O)N2CCN(C(=O)c3cc(-c4cccs4)n[nH]3)CC2)c(C)c1      inhibition           2.83
 5  NC(=O)c1ccc(NC(=O)CN(Cc2ccc(Cl)cc2)S(=O)(=O)c2ccccc2)cc1      inhibition           7.52
 6  CC(C)CNCc1ccc(-c2ccccc2CN(C(=O)NCCc2ccccc2)C2CCN(Cc3ccccc3)CC2)cc1      inhibition           1.25
 7  C=CC(=O)Nc1ccc(Cl)cc1C(O)c1ccccc1 (stereo not given)      inhibition            2.6
 8  O=C(NCCCc1ccccc1)c1csc(C2CCCN(C(=O)c3ccc(O)c(-c4ccccc4)c3)C2)n1 (stereo not given)      inhibition           2.11
 9  c1ccn2c(-c3ncnc(NCc4ccc5c(c4)CCO5)n3)cnc2c1      inhibition              1
10            N=C(N)NN=Cc1ccccc1OCc1ccccc1Cl      inhibition          -0.49
